# assayed_system: Rap guanine nucleotide exchange factor 4 (Mus musculus)
# Sequence (Q9EQZ6 whole entry, the tested form may be a part): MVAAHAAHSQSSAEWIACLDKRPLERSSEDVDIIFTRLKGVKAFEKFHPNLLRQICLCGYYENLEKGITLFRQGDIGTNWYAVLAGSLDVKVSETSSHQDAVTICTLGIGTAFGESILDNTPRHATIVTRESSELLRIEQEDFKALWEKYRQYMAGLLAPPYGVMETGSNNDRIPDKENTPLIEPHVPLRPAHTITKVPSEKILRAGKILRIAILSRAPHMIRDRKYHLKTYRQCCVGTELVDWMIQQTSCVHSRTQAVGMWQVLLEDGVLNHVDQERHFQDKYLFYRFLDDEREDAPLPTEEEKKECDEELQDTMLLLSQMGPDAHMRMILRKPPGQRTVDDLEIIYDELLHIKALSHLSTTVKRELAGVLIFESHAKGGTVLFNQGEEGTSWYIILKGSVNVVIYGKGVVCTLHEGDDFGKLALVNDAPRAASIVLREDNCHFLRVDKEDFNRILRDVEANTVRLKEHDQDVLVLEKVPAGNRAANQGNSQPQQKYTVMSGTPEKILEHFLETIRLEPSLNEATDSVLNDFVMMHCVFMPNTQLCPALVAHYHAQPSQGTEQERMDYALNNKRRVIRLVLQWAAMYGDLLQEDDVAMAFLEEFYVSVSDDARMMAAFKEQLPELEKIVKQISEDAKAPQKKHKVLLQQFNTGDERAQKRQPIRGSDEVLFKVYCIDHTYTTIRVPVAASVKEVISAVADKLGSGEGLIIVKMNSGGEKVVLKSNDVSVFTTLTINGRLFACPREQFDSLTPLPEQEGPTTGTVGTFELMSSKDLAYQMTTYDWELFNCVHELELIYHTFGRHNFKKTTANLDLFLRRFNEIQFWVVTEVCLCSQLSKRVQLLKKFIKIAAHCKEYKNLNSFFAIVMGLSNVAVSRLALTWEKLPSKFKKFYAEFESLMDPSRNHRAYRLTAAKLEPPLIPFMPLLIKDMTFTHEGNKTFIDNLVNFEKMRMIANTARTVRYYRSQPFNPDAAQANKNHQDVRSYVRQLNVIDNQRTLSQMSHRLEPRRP
# assay_overview: Inhibition of 8Fluo-cAMP binding to DEP domain deficient mouse EPAC2 (280 to 998 residues) measured after 5 mins by fluorescence polarization assay
endpoint: EC50 (nM)

Nc1ncnc2c1c(Br)cn2[C@@H]1O[C@@H]2COP(=O)(O)O[C@H]2[C@H]1O
2360

A. Nc1ncnc2c1ccn2[C@@H]1O[C@@H]2COP(=O)(O)O[C@H]2[C@H]1O
B. Nc1ncnc2c1cc(Br)n2[C@@H]1O[C@@H]2COP(=O)(O)O[C@H]2[C@H]1O
C. Nc1ncnc2c1nc(Br)n2[C@@H]1O[C@@H]2COP(=O)(O)O[C@H]2[C@H]1O
Qu. List these items ordered by EC50, big to small. Reply with the item labels sorted in the order that was asked for.
Ans. A, C, B

// data source = ChEMBL document CHEMBL4400574
